Attribution: patent US5047406A

Measured Target: sigma opiate binding site
Experimental Details: Inhibition of [^3 H] DTG (ditoluoyl guanidine; a sigma ligand) binding
Description: The compounds of Formula I are valuable dopaminergic agents. […]
Value Type: IC50 (nM)

Here's what some known entries look like.
Enquiry: Report measured IC50; entry is OC1(c2ccccn2)CCC(CCN2CC=C(c3ccccc3)CC2)CC1 (centres unmarked)
Return: 3.5

Enquiry: Report measured IC50; entry is OC1(c2cccs2)CCC(CCN2CCN(c3ccccn3)CC2)CC1 (centres unmarked) [Example 4]
Return: 5

Enquiry: Report measured IC50; entry is OC1(c2cccs2)CCC(CCN2CCN(c3ccccn3)CC2)CC1 (centres unmarked) [Example 3]
Return: 6

a. OC1(c2ccsc2)CCC(CCN2CCN(c3ccccn3)CC2)CC1 (centres unmarked)
b. OC1(c2ccc(F)cc2)CCC(CCN2CCN(c3ccccn3)CC2)CC1 (centres unmarked)
Enquiry: Which has the higher IC50, a or b ? Kindly state the label of the option you pick.
Return: b
